- protocol: photoluminescence quantum yield (fraction); solvent given as SMILES
- experimentalParameters: in C1CCOC1
// map photoluminescence quantum yield onto a label; ranges bottom range = under 0.07, center range = from 0.07 up to 0.3, top range = 0.3 and over

• CCCCCOc1cc2oc(=O)c3c4occc4c4ccc5cccc6c(c1)c2c3c4c56 = top range
• c1ccc(C2CCN3COc4c5ccccc5c5c6c7c(c2c3c46)C(c2ccccc2)CCN7CO5)cc1 (stereo not given) = center range
• Cc1cc(N(C)C)cc(C)c1/C=C/C=C/c1ccc(C#N)cc1 = center range
• N#Cc1ccc(-n2cccc2)cc1 = bottom range
• CC1(C)CC(=O)C2=C(C1)Oc1ccc3cc(O)ccc3c1C2c1ccccn1 (stereo not given) = bottom range
• CC1=CC(c2ccc3cc(N(C)C)ccc3c2)=[O+][B-](F)(F)O1 = top range
• CN(C)c1ccc(C(=O)Nc2ccccc2)cc1 = bottom range
• CCCCCCc1ccc(-n2c3[n+](c4c5ccccc5c5ccccc5c42)[B-](C)(C)c2ccccc2-3)cc1 = top range
• CCN(CC)c1ccc2cc(-c3csc(NC(C)=O)c3C#N)c(=O)oc2c1 = top range
• O=P1(c2ccccc2)C(c2cccs2)=Cc2ccccc21 (stereo not given) = center range
• COc1cc2c3c(c4cc(OC)c(OC)c(OC)c4c2c(OC)c1OC)=[N+]1C(=C(c2c(C)cc(C)cc2C)c2cc4c5cc(OC)c(OC)c(OC)c5c5c(OC)c(OC)c(OC)cc5c4n2[B-]1(F)F)C=3 = bottom range
• C(=C(c1ccccc1)c1ccccc1)c1ccc(C=C(c2ccccc2)c2ccccc2)cc1 = bottom range
• C[Si]1(c2ccccc2)C(c2ccc3c4ccccc4n(-c4ccccc4)c3c2)=C(c2ccccc2)C(c2ccccc2)=C1c1ccc2c3ccccc3n(-c3ccccc3)c2c1 = bottom range
• C(=C(c1ccccc1)c1ccccc1)c1ccc(-c2cc(-c3ccc(C=C(c4ccccc4)c4ccccc4)cc3)cc(-c3ccc(C=C(c4ccccc4)c4ccccc4)cc3)c2)cc1 = bottom range
• CCC1(CC)c2ccccc2-c2c1c1c(c3c2C(CC)(CC)c2cc(B(c4c(C)cc(C)cc4C)c4c(C)cc(C)cc4C)ccc2-3)C(CC)(CC)c2ccccc2-1 = top range
• Cc1ccc(C2=[N+]3C(=Cc4ccc(C)n4[B-]3(F)F)c3ccccc32)[nH]1 = top range
• F[B-]1(F)n2c(/C=C/c3ccc(C(=C(c4ccccc4)c4ccccc4)c4ccccc4)cc3)ccc2C(c2ccc(C(=C(c3ccccc3)c3ccccc3)c3ccccc3)cc2)=C2C=CC(/C=C/c3ccc(C(=C(c4ccccc4)c4ccccc4)c4ccccc4)cc3)=[N+]21 = top range
• C(=C\c1ccc(/C=C/c2ccc(N(c3ccccc3)c3ccccc3)cc2)c2nsnc12)/c1ccc(N(c2ccccc2)c2ccccc2)cc1 = center range
• Cc1cccc2[n+]1[B-](F)(F)n1c(c3cccc4cccc1c43)=N2 = top range
• c1ccc(N(c2ccccc2)c2ccc3c(ccc4nc5ccc6cc(N(c7ccccc7)c7ccccc7)ccc6c5nc43)c2)cc1 = top range
• COc1ccc(-c2cc3ccc4cc(-c5ccc(OC)cc5)cc5ccc(c2)c3c45)cc1 = center range

====

- protocol: photoluminescence quantum yield (fraction); solvent given as SMILES
- experimentalParameters: in CO
Quick reference: photoluminescence quantum yield of the listed items.
resultType: photoluminescence quantum yield

• C(C#Cc1ccc2ccc3cccc4ccc1c2c34)#Cc1cccc2ccccc12 = 0.55
• COc1nc(Nc2cc3ccc4cccc5ccc(c2)c3c45)nc(OC)n1 = 0.13
• C(=C\c1nc2ccccc2o1)/c1ccccc1 = 0.006
• CN(c1ccccc1)c1ccc(/C=C2\C(=O)c3ccccc3S2(=O)=O)cc1 = 0.012
• C=CCOc1ccc(-c2nc3cc(C(NC(=O)OC(C)(C)C)C(=O)OC)ccc3o2)cc1 (centres undefined) = 0.79
• COC(=O)c1cc(OC)ccc1OC = 0.64
• Cc1ccc(-c2nc(-c3ccccc3O)[nH]c2-c2ccc(C)cc2)cc1 = 0.28
• CC(C)c1ccc2ccc3c(C(C)C)ccc4ccc1c2c43 = 0.55
• Clc1ccc(/C=C/c2ccc(-c3nc4c5cccnc5c5ncccc5c4[nH]3)cc2)cc1 = 0.16
• O=C(O)CCCOc1cc2ccc3cccc4ccc(c1)c2c34 = 0.77
• COc1ccccc1-c1c(-c2ccccc2O)nc(-c2ccc(C(F)(F)F)cc2)n1-c1ccc(C)cc1 = 0.01
• CC1(C)CC(=O)C2=C(C1)Oc1ccc3ccc(O)cc3c1C2c1ccccn1 (centres undefined) = 0.0024
• CN(C)c1ccc2nc(-c3ccc(C=C(C#N)C#N)cc3)sc2c1 = 0
• CC1=[N+]2C(=C(c3ccc(N(C)C)cc3)c3ccc(C)n3[B-]2(F)F)C=C1 = 0.03

====

- protocol: photoluminescence quantum yield (fraction); solvent given as SMILES
- experimentalParameters: in ClC(Cl)Cl
Label TRUE when photoluminescence quantum yield is at or above 0.2; anything below gets FALSE.

* CCCCCCCCOc1ccc(-c2c3c4n(c(-c5ccc(OCCCCCCCC)cc5)c3c3n2[B-](F)(F)[n+]2c(ccc5ccccc52)N=3)[B-](F)(F)[n+]2c(ccc3ccccc32)N=4)cc1 | TRUE
* COc1ccc2cc(C3=[N+]4C(=Nc5c(-c6ccccc6)cc(-c6ccc7cc(OC)ccc7c6)n5[B-]4(F)F)C(c4ccccc4)=C3)ccc2c1 | TRUE
* F[B-]1(F)n2c(cc(Br)c2Br)C(c2ccccc2)=C2C=C(Br)C(c3ccc[nH]3)=[N+]21 | TRUE
* CCN(CC)c1ccc2ccc(=O)oc2c1 | TRUE
* CCCCCCN1C(=O)c2cccc3cc(/N=C\c4ccc5c(c4)c4ccccc4n5CC)cc(c23)C1=O | FALSE
* O=C1OC(c2ccccc2)=N/C1=C\c1ccc(N(c2ccccc2)c2ccccc2)cc1 | FALSE
* CC1=[N+]2C(=C(c3ccc(N(C)C)cc3)c3ccc(C)n3[B-]2(F)F)C=C1 | FALSE
* CCCCCCCCC1(CCCCCCCC)c2cc(-c3ccc(C(F)(F)F)cc3)ccc2-c2ccc(N(c3ccc(-n4c5ccccc5c5ccccc54)cc3)c3ccc4c(c3)C(CCCCCCCC)(CCCCCCCC)c3cc(-c5ccc(C(F)(F)F)cc5)ccc3-4)cc21 | TRUE
* COCCOCCOCCN1C(=O)c2cc(NCCOCCO)c3c4c(cc(NCCOCCO)c(c24)C1=O)C(=O)N(CCOCCOCCOC)C3=O | TRUE
* Cc1cccc(C2=Cc3c4ccccc4c4ccccc4[n+]3[B-](F)(F)O2)c1 | FALSE
* COc1ccc(C2=Cc3c4ccccc4cc[n+]3[B-](F)(F)O2)cc1 | TRUE
* C/C=C/C=C/C1=NC(=C\c2ccc(O)cc2)/C(=O)N1C | FALSE
* CCCCCCCCCCN1C(=O)c2cc(NCCCOCCO)c3c4c(cc(NCCCOCCO)c(c24)C1=O)C(=O)N(CCCCCCCCCC)C3=O | TRUE
* c1ccc(-c2nc(-c3ccccn3)[se]c2N(c2ccccc2)c2ccccc2)cc1 | FALSE
* COC(=O)C(Cc1ccc2oc(-c3ccc4c(c3)c3ccccc3n4-c3ccccc3)nc2c1)NC(=O)OC(C)(C)C (stereo not given) | TRUE
* O=c1oc2ccccc2cc1-c1ccc([N+](=O)[O-])cc1 | FALSE
* CCC(CC)n1c2ccccc2c2cc3c(cc21)c1ccccc1n3C(CC)CC | FALSE
* Cc1cc(=O)oc2cc3c4ccc(C(C)(C)C)cc4c4cc(C(C)(C)C)ccc4c3cc12 | FALSE
* F[B-]1(F)n2cccc2C(c2ccccc2)=C2C=CC(c3cccc(OC4=[N+]5C(=C(c6ccccc6)c6cc(Br)c(Br)n6[B-]5(F)F)C=C4Br)c3)=[N+]21 | TRUE
* Cc1nc2c(ccc3c2sc(/C=C/c2ccc(N(CCO)CCO)cc2)[n+]3C)s1 | FALSE
* CCCCCCN1C(=O)c2cccc3cc(/N=C\c4cn(C)c5ccccc45)cc(c23)C1=O | FALSE
* CN(C)c1ccc2nc(-c3ccc(C=C(C#N)C#N)cc3)sc2c1 | TRUE
* F[B-]1(F)n2ccnc2-c2cccc[n+]21 | FALSE
* CC(=O)c1ccc(-c2nc3ccc(N(C)C)c(Br)c3s2)cc1 | TRUE
* CCCCN1c2ccccc2Sc2cc(/C=C\c3cc(=O)oc4cc(C)ccc34)ccc21 | TRUE
* CCCCCCCCc1ccc(-c2c3cc(-c4cc(CCCCCCCC)c(-c5ccc(-c6sc(/C=C7\SC(SCC)=NC7=O)cc6CCCCCCCC)s5)s4)sc3c(-c3ccc(CCCCCCCC)s3)c3cc(-c4cc(CCCCCCCC)c(-c5ccc(-c6sc(/C=C7\SC(SCC)=NC7=O)cc6CCCCCCCC)s5)s4)sc23)s1 | FALSE
* CCCCCCCCCCCCCCCCOc1cc(C#Cc2ccc3ccccc3c2)c(OCCCCCCCCCCCCCCCC)cc1C#Cc1ccc(C=C(C#N)C#N)cc1 | TRUE
* Cc1ccc(C2=Cc3ccc4ccccc4[n+]3[B-](F)(F)O2)cc1 | TRUE
* NCc1ccc2ccc3cccc4ccc1c2c34 | FALSE
* CCCCCCCC(=O)Oc1ccc2c3cccc4c(OC(=O)CCCCCCC)ccc(c5cccc1c52)c43 | TRUE
